# TARGET SYSTEM: T1, Caspase-2 (UniProt P42575 170-452, limits assumed)
# T1 sequence (looked up): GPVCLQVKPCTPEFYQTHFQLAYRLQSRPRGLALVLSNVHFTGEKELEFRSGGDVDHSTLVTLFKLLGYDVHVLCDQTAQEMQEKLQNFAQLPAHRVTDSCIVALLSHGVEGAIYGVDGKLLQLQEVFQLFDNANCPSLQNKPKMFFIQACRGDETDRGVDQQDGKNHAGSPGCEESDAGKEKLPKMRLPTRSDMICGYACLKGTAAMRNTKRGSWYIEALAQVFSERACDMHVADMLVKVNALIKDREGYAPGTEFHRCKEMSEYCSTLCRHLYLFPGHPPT
# RUN DESCRIPTION: cell-based or functional assay
Numbered stars: 1 amine (or outer) side, 2 acyl side, 3 side chain; on linkers, the order of the positions; unused ones are H or OH. Square brackets hold non-standard residues; d marks the D form. * marks the point of attachment. CH═CH‑CON(CH3)CH2CH2Ph = CN(CCc1ccccc1)C(=O)/C=C/*; AAsp = aza-Asp, O=C(N(CC(=O)[*:3])N[*:1])[*:2]; Cbz = O=C(OCc1ccccc1)*
MEASURED QUANTITY: k2 (M⁻¹ s⁻¹)

Cbz-LET[AAsp]-{CH═CH‑CO‑tetrahydroquinoline} [Cbz-Leu-Glu-Thr-AAsp-CH═CH-CON-tetrahydroquinoline] :: 92
Cbz-DEV[AAsp]-{CH═CH‑CON(CH3)CH2CH2Ph} (SMILES CC(C)[C@H](NC(=O)[C@H](CCC(=O)O)NC(=O)[C@H](CC(=O)O)NC(=O)OCc1ccccc1)C(=O)NN(CC(=O)O)C(=O)/C=C/C(=O)N(C)CCc1ccccc1) [Cbz-Asp-Glu-Val-AAsp-CH═CH-CON(CH3)CH2CH2Ph] :: 320
Cbz-DEV[AAsp]-{CH═CH‑CONHCH2CH2Ph} [Cbz-Asp-Glu-Val-AAsp-CH═CH-CONHCH2CH2Ph] :: 120
